System: P. falciparum 3D7 trophozoites
Assay: Metabolomic fingerprint profiling LC-MS
Format: cell-based, Plasmodium falciparum
Settings: metabolite level change after treatment
Property Name: glutathione disulfide

- Molecule: "C[n+]1c2ccccc2nc2ccc(NCCO)cc21"
  System: "P. falciparum 3D7 trophozoites"
  Result: 0.1827
- Molecule: "O=C(CSc1nccn2nc(-c3ccccc3)cc12)Nc1cc(C(F)(F)F)ccc1Cl"
  System: "P. falciparum 3D7 trophozoites"
  Result: -0.08653
- Molecule: "Cc1cc(Nc2ccc(C)c(Cl)c2)n2nc(C(F)(F)F)nc2n1"
  System: "P. falciparum 3D7 trophozoites"
  Result: -0.03556
- Molecule: "Cc1ccc(-c2cc3nc4c(c(O)n3n2)CCCC4)cc1"
  System: "P. falciparum 3D7 trophozoites"
  Result: 0.02779
- Molecule: "CCOC(=O)c1cn(CC)c2cc(N3CCCCC3)c(F)cc2c1=O"
  System: "P. falciparum 3D7 trophozoites"
  Result: 0.6276
- Molecule: "Cc1cc(Nc2ccc(Cl)cc2)n2nc(C(F)(F)F)nc2n1"
  System: "P. falciparum 3D7 trophozoites"
  Result: 0.192
- Molecule: "CCc1ccc(Nc2cc(C)c3ccc(O)cc3n2)cc1"
  System: "P. falciparum 3D7 trophozoites"
  Result: -0.5684
- Molecule: "CCC(c1ccccc1)c1nn2c(-c3cccs3)nnc2s1 (stereo not shown)"
  System: "P. falciparum 3D7 trophozoites"
  Result: 0.137
- Molecule: "CCOC(=O)c1ccc2nc(-c3ccccc3)cc(O)c2c1"
  System: "P. falciparum 3D7 trophozoites"
  Result: 0.1448
- Molecule: "COc1ccc(Br)cc1C1Nc2ccc3ccccc3c2C2=C1C(=O)CC(c1ccccc1)C2 (stereo not shown)"
  System: "P. falciparum 3D7 trophozoites"
  Result: 0.06546

###

Tested on: B. bovis (Texas strain)
Experiment: B. bovis fluorescence-based growth assay
Type: cell-based
Conditions: Babesia bovis, in Bos taurus
pEC50: −log10 of the molar value.
Property Name: pEC50

- Compound: "COc1cc2cc(C(=O)Nc3ccccc3)c(N)nc2cc1OC [MMV006767]"
  Recorded Number: 6.07

###

System: P. falciparum 3D7 trophozoites
Test: Metabolomic fingerprint profiling LC-MS
Type: cell-based, Plasmodium falciparum
Conditions: metabolite level change after treatment
# Lookup of reported myo-inositol keyed by entry

- Compound: "CCOC(=O)c1c(C)n(-c2ccc(Cl)cc2)c2ccc(OC(=O)C=Cc3ccccc3)cc12"
  myo-inositol: -0.8322
- Compound: "Cc1ccc(Nc2nc(-c3ccccn3)cs2)cc1"
  myo-inositol: 0.004909
- Compound: "COc1cccc(NC(=O)[C@H](C(C)C)n2c(=O)[nH]c3ccccc3c2=O)c1"
  myo-inositol: -0.3766
- Compound: "Cc1cc(C)c2c(c1)OCN(Cc1ccccc1Cl)C2"
  myo-inositol: -0.7596
- Compound: "CCCc1cc(O)c2c3c(c(=O)oc2c1)CN(C)CC3"
  myo-inositol: -0.7715
- Compound: "CCOC(=O)c1cn(CC)c2cc(N3CCCCC3)c(F)cc2c1=O"
  myo-inositol: 2.498
- Compound: "O=C(O)C1Cc2c([nH]c3ccccc23)C(c2ccc(Cl)cc2Cl)N1 (stereo not drawn)"
  myo-inositol: 0.6581
- Compound: "CCOc1ccc(-c2nonc2NC(=O)c2cccc(C)c2)cc1OCC"
  myo-inositol: -5.977
- Compound: "c1ccc2cc3c(Nc4ccc(N5CCOCC5)cc4)ccnc3cc2c1"
  myo-inositol: -0.35

###

Test system: P. falciparum 3D7 trophozoites
Assay: Metabolomic fingerprint profiling LC-MS
Assay type: cell-based, Plasmodium falciparum
Details: S2 Table Metabolomics; metabolite NADPH

- Compound: "COc1cccc(NC(=O)[C@H](C(C)C)n2c(=O)[nH]c3ccccc3c2=O)c1"
  NADPH: -0.665
- Compound: "Cc1cc(Nc2ccc3ccccc3c2)n2ncnc2n1"
  NADPH: 1.182
- Compound: "CSC1=NC(=Nc2c(C)cccc2C)C2(CCC(C(C)(C)C)CC2)N1c1ccc(Cl)cc1 (stereo not drawn)"
  NADPH: 0.4611
- Compound: "CCOC(=O)c1cnc2ccc(CC)cc2c1O"
  NADPH: -0.5029
- Compound: "CCOC(=O)C1=C(c2ccccc2)N=c2sc(=Cc3cc(C)n(-c4ccc(F)cc4)c3C)c(=O)n2C1c1cccc(OC)c1OC (stereo not drawn)"
  NADPH: 0.275
- Compound: "Cc1cc(C)c2c(c1)OCN(Cc1ccccc1Cl)C2"
  NADPH: 1.445
- Compound: "O=C(O)C1Cc2c([nH]c3ccccc23)C(c2ccc(Cl)cc2Cl)N1 (stereo not drawn)"
  NADPH: 0.4869
- Compound: "CN(C)c1ccc(C(O)(c2ccc(N(C)C)cc2)c2ccc(N(C)C)cc2)cc1"
  NADPH: 0.7329
- Compound: "COc1ccc(C2=C(c3ccc(OC)cc3)C3(c4ccccc4)C(=O)C2(c2ccccc2)C2C(=O)N(c4ccc(C)cc4)C(=O)C23)cc1 (stereo not drawn)"
  NADPH: -0.9507
- Compound: "Cc1cc(Nc2ccc(C)c(Cl)c2)n2nc(C(F)(F)F)nc2n1"
  NADPH: 0.1752
- Compound: "COc1cc(OC)c(N(C)C(=O)c2cc3c(s2)-c2ccccc2S(=O)(=O)C3)cc1Cl"
  NADPH: -0.4646
- Compound: "COc1ccc2c(c1)OC(O)(C(F)(F)C(F)(F)F)CC2=O (stereo not drawn)"
  NADPH: -0.4001
- Compound: "COc1ccc(-c2nc(NC(=O)CS(=O)(=O)c3ccc(F)cc3)sc2C)cc1"
  NADPH: 0.1215
- Compound: "COc1ccc(C(=O)Nc2nonc2-c2ccc(OC)c(OC)c2)cc1Cl"
  NADPH: -0.479
- Compound: "COc1ccc(NC(=O)C2c3ccccc3C(=O)N(CC(C)C)C2c2cccs2)cc1Cl (stereo not drawn)"
  NADPH: -0.3813
- Compound: "Cc1ccc(-c2cc3c(SCC(=O)Nc4cc(C(F)(F)F)ccc4Cl)nccn3n2)cc1"
  NADPH: 0.3651
- Compound: "COc1ccccc1N=C1C(=O)c2ccccc2C(O)=C1N1CCCCC1"
  NADPH: 1.905
- Compound: "CCOC(=O)c1c(NC(=O)c2ccccc2)sc2c(O)c(CN(CC)CC)ccc12"
  NADPH: 1.923

###

Test system: U87-CD4-CCR5 or U87-CD4-CXCR4 cells
Test: U87 cell viability MTT
Format: cell-based
Details: 5µM
# U87 Luc % cell death rep1 values compiled below

- Molecule: "COc1cc2cc(C(=O)Nc3ccccc3)c(N)nc2cc1OC [MMV006767]"
  Unit Label: "%"
  U87 Luc % cell death rep1: 75
- Molecule: "CCOC(=O)c1cnc2ccc(OC)cc2c1NCc1ccccc1 [MMV665813]"
  Unit Label: "%"
  U87 Luc % cell death rep1: -52
- Molecule: "CCN1CCN(c2cc(C)c3cc(NC(=O)c4ccc(OC)c(OC)c4)ccc3n2)CC1 [MMV019074]"
  Unit Label: "%"
  U87 Luc % cell death rep1: 0.063
- Molecule: "CCN(CC)c1cc(C)c2cc(NC(=O)c3cccc(OC)c3)ccc2n1 [MMV000498]"
  Unit Label: "%"
  U87 Luc % cell death rep1: 21
- Molecule: "COc1ccc(C(=O)Nc2ccc3nc(N4CCCCC4)cc(C)c3c2)cc1OC [MMV019758]"
  Unit Label: "%"
  U87 Luc % cell death rep1: -1.12

###

System: P. falciparum 3D7 trophozoites
Experiment: Metabolomic fingerprint profiling LC-MS
Format: cell-based, Plasmodium falciparum
Conditions: metabolite dATP, S2 Table Metabolomics
Property Name: dATP

- Compound: "COc1ccc(-c2nc3cc(Cc4ccc5[nH]c(-c6ccc(OC)cc6)nc5c4)ccc3[nH]2)cc1"
  System: "P. falciparum 3D7 trophozoites"
  Property Name: "dATP"
  Recorded Number: -0.2668
- Compound: "Cc1cc(C)c2c(c1)OCN(Cc1ccccc1Cl)C2"
  System: "P. falciparum 3D7 trophozoites"
  Property Name: "dATP"
  Recorded Number: -0.2852
- Compound: "C[n+]1c2ccccc2nc2ccc(NCCO)cc21"
  System: "P. falciparum 3D7 trophozoites"
  Property Name: "dATP"
  Recorded Number: 0.0739
- Compound: "CCOc1cc2c(cc1OCC)C(c1cc(OC)c(O)cc1Cl)NCC2 (stereo not shown)"
  System: "P. falciparum 3D7 trophozoites"
  Property Name: "dATP"
  Recorded Number: 0.6577
- Compound: "CSC1=NC(=Nc2c(C)cccc2C)C2(CCC(C(C)(C)C)CC2)N1c1ccc(Cl)cc1 (stereo not shown)"
  System: "P. falciparum 3D7 trophozoites"
  Property Name: "dATP"
  Recorded Number: 0.3608
- Compound: "COc1cc(OC)c(N(C)C(=O)c2cc3c(s2)-c2ccccc2S(=O)(=O)C3)cc1Cl"
  System: "P. falciparum 3D7 trophozoites"
  Property Name: "dATP"
  Recorded Number: -0.2111
- Compound: "COc1ccc(-c2cc3c(SCC(=O)Nc4cc(C(F)(F)F)ccc4Cl)nccn3n2)cc1"
  System: "P. falciparum 3D7 trophozoites"
  Property Name: "dATP"
  Recorded Number: 0.3792
- Compound: "CCN(CC)CCNc1ccnc2cc(Cl)ccc12"
  System: "P. falciparum 3D7 trophozoites"
  Property Name: "dATP"
  Recorded Number: -0.2015
- Compound: "O=[N+]([O-])c1ccc(C=NNc2nc3ccccc3[nH]2)cc1"
  System: "P. falciparum 3D7 trophozoites"
  Property Name: "dATP"
  Recorded Number: 0.1896
- Compound: "Cc1cc(Nc2ccc(Cl)cc2)n2nc(C(F)(F)F)nc2n1"
  System: "P. falciparum 3D7 trophozoites"
  Property Name: "dATP"
  Recorded Number: 0.3626
- Compound: "Cc1cc(C=C2SC(=Nc3ccccc3)N(C3CCCC3)C2=O)c(C)n1-c1ccc(Cl)cc1"
  System: "P. falciparum 3D7 trophozoites"
  Property Name: "dATP"
  Recorded Number: 0.7542
- Compound: "COc1ccc2c(=O)cc(C(Cl)(Cl)Cl)oc2c1"
  System: "P. falciparum 3D7 trophozoites"
  Property Name: "dATP"
  Recorded Number: -2.2274
- Compound: "COc1cccc(C=Cc2nc(=O)c3ccccc3o2)c1OC"
  System: "P. falciparum 3D7 trophozoites"
  Property Name: "dATP"
  Recorded Number: 0.7712
- Compound: "Cc1ccc(-c2cc3c(nn2)-c2ccccc2C3=O)cc1"
  System: "P. falciparum 3D7 trophozoites"
  Property Name: "dATP"
  Recorded Number: 0.3766
- Compound: "CCOC(=O)c1c(NC(=O)c2ccccc2)sc2c(O)c(CN(CC)CC)ccc12"
  System: "P. falciparum 3D7 trophozoites"
  Property Name: "dATP"
  Recorded Number: -0.7894
- Compound: "COc1ccc(Br)cc1C1Nc2ccc3ccccc3c2C2=C1C(=O)CC(c1ccccc1)C2 (stereo not shown)"
  System: "P. falciparum 3D7 trophozoites"
  Property Name: "dATP"
  Recorded Number: 0.1038
- Compound: "CCCN(CCC)CC(O)COc1ccccc1C(=O)Nc1ccccc1 (stereo not shown)"
  System: "P. falciparum 3D7 trophozoites"
  Property Name: "dATP"
  Recorded Number: -1.015
- Compound: "Oc1ccccc1CNCC12CC3CC(CC(C3)C1)C2"
  System: "P. falciparum 3D7 trophozoites"
  Property Name: "dATP"
  Recorded Number: -0.1887
- Compound: "O=C(NCC(c1ccsc1)N1CCCCCC1)c1ccc(C(F)(F)F)cc1 (stereo not shown)"
  System: "P. falciparum 3D7 trophozoites"
  Property Name: "dATP"
  Recorded Number: 0.05116
